Target protein (sequence): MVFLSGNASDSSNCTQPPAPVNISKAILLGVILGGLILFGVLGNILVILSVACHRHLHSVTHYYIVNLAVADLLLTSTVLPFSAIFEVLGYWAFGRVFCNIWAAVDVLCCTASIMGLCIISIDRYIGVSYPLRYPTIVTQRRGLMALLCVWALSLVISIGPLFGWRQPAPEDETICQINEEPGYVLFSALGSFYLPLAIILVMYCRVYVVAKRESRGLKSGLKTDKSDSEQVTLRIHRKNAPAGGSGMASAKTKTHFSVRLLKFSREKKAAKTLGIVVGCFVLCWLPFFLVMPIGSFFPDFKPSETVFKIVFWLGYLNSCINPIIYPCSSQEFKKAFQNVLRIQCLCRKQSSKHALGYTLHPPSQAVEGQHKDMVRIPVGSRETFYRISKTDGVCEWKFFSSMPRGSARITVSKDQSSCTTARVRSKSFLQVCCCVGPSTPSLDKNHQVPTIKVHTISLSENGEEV
measured.parameter: Ki (nM)

[[record]]
smiles_structure = "COc1ccccc1N1CCN(CCn2c(=O)[nH]c3c(sc4ccccc43)c2=O)CC1"
numeric_readout = 3.31

[[record]]
smiles_structure = "COc1ccccc1N1CCN(CCn2c(C)nc3c(sc4ccccc43)c2=O)CC1"
numeric_readout = 1.48

[[record]]
smiles_structure = "COc1ccc(Cl)cc1N1CCN(CCn2c(=O)[nH]c3c(sc4ccccc43)c2=O)CC1"
numeric_readout = 53.7

[[record]]
smiles_structure = "COc1ccccc1N1CCN(CCn2c(=O)[nH]c3c([nH]c4ccccc43)c2=O)CC1"
numeric_readout = 0.288


###

target: Alpha-1B adrenergic receptor (Rattus norvegicus) (UniProt P15823); test: Antagonist activity at adrenergic alpha 1B receptor in rat spleen; type: functional, tissue-based
Sequence (P15823 whole entry): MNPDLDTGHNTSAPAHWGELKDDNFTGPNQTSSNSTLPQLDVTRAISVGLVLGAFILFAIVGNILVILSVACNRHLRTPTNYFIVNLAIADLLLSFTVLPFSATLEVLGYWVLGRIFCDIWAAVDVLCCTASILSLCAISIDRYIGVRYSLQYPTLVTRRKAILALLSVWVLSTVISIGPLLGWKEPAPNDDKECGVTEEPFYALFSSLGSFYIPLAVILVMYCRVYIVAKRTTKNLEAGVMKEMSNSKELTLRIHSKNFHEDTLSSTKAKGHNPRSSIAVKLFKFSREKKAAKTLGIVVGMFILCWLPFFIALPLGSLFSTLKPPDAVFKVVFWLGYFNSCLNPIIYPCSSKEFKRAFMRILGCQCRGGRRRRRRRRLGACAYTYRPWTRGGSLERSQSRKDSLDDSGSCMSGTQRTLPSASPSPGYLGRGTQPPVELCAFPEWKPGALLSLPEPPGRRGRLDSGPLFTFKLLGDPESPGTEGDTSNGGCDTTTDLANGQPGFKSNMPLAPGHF
Outcome: TRUE for pKb of at least 9; FALSE for anything lower.

[[record]]
smiles_structure = "COc1ccccc1N1CCN(CCn2c(=O)[nH]c3c(sc4ccccc43)c2=O)CC1"
assigned_label = "FALSE"

[[record]]
smiles_structure = "COc1ccc(Cl)cc1N1CCN(CCn2c(C)nc3c([nH]c4ccccc43)c2=O)CC1"
assigned_label = "FALSE"

[[record]]
smiles_structure = "COc1ccccc1N1CCN(CCn2c(C)nc3c(sc4ccccc43)c2=O)CC1"
assigned_label = "FALSE"

[[record]]
smiles_structure = "COc1ccccc1N1CCN(CCn2c(=O)[nH]c3c([nH]c4ccccc43)c2=O)CC1"
assigned_label = "FALSE"

[[record]]
smiles_structure = "COc1ccccc1N1CCN(CCn2c(C)nc3c4ccccc4nc-3c2O)CC1"
assigned_label = "TRUE"


###

molecular target: Alpha-1B adrenergic receptor (Homo sapiens)
Sequence (P35368 whole entry): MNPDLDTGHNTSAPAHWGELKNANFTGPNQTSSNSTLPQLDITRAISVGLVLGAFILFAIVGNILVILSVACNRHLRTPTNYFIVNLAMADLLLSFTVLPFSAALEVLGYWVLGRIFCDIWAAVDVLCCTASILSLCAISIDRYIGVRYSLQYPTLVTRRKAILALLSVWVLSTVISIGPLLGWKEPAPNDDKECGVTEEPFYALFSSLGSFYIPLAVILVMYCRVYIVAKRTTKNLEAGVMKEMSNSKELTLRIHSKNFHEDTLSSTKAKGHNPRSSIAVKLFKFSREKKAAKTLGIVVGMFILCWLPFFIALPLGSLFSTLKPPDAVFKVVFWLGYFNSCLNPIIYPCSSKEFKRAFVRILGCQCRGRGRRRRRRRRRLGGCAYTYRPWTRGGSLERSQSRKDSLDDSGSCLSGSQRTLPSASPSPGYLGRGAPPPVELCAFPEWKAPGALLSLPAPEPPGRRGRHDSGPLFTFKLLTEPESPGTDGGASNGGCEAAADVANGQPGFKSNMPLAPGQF
pKi: −log10 of the molar value.
Outcome: MET for pKi of at least 7; NOT MET for anything lower.

[[record]]
smiles_structure = "COc1ccc(Cl)cc1N1CCN(CCn2c(C)nc3c(sc4ccccc43)c2=O)CC1"
assigned_label = "MET"

[[record]]
smiles_structure = "COc1ccccc1N1CCN(CCn2c(=O)[nH]c3c(sc4ccccc43)c2=O)CC1"
assigned_label = "MET"

[[record]]
smiles_structure = "O=c1[nH]c2c(sc3ccccc32)c(=O)n1CCN1CCN(c2ccc(Cl)c(Cl)c2)CC1"
assigned_label = "NOT MET"


###

target: Alpha-1A adrenergic receptor (Rattus norvegicus) (UniProt P43140); test: Antagonist activity at adrenergic alpha 1A receptor in rat prostatic vas deferens; type: functional, tissue-based
Sequence (P43140 whole entry): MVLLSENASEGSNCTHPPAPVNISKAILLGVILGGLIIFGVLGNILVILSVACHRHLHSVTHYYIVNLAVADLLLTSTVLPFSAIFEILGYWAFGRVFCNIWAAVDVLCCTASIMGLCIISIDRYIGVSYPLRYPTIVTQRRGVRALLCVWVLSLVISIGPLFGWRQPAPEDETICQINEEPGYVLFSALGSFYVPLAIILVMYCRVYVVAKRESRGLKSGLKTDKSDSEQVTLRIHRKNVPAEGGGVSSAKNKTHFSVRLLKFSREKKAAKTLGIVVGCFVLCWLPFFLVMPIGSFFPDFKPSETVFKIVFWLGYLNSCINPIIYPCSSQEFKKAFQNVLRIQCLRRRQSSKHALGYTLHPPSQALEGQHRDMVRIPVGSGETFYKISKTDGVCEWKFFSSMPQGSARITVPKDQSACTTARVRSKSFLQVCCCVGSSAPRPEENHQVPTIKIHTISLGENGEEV
measured.parameter: pKb

[[record]]
smiles_structure = "COc1ccccc1N1CCN(CCn2c(C)nc3c4ccccc4nc-3c2O)CC1"
numeric_readout = 8.53

[[record]]
smiles_structure = "COc1ccccc1N1CCN(CCn2c(C)nc3c(sc4ccccc43)c2=O)CC1"
numeric_readout = 8.65

[[record]]
smiles_structure = "COc1ccccc1N1CCN(CCn2c(=O)[nH]c3c(sc4ccccc43)c2=O)CC1"
numeric_readout = 8.61

[[record]]
smiles_structure = "COc1ccc(Cl)cc1N1CCN(CCn2c(C)nc3c(sc4ccccc43)c2=O)CC1"
numeric_readout = 7.52

[[record]]
smiles_structure = "COc1ccccc1N1CCN(CCn2c(=O)[nH]c3c([nH]c4ccccc43)c2=O)CC1"
numeric_readout = 8.46

[[record]]
smiles_structure = "COc1ccc(Cl)cc1N1CCN(CCn2c(C)nc3c([nH]c4ccccc43)c2=O)CC1"
numeric_readout = 7.6

